Cited source for all entries: ChEMBL document CHEMBL3044632

Tested on: Phytophthora infestans
Assay: Fungicide activity against Phytophthora infestans assessed as growth inhibition at 50 ug/mL at 24 to 26 degC measured after 2 days
Type: functional
Settings: 48 h, read-out: GI
inhibition of growth at 50 µg/mL values, listed per item
quantityName: inhibition of growth at 50 µg/mL

{"molecule": "Cc1nnsc1C1=NNC2SC(c3ccc(OC(F)(F)F)cc3)=NN12 (configuration not stated)", "quantityName": "inhibition of growth at 50 µg/mL", "measurement": "4.8%"}
{"molecule": "Cc1nnsc1C1=NNC2SC(c3ccc([N+](=O)[O-])cc3)=NN12 (configuration not stated)", "quantityName": "inhibition of growth at 50 µg/mL", "measurement": "22.2%"}
{"molecule": "Cc1nnsc1C1=NNC2SC(c3c(-c4ccccc4)noc3C)=NN12 (configuration not stated)", "quantityName": "inhibition of growth at 50 µg/mL", "measurement": "7.4%"}
{"molecule": "Cc1nnsc1C1=NNC2SC(C(Cl)(Cl)Cl)=NN12 (configuration not stated)", "quantityName": "inhibition of growth at 50 µg/mL", "measurement": "70.7%"}
{"molecule": "COc1cccc(C2=NN3C(c4snnc4C)=NNC3S2)c1 (configuration not stated)", "quantityName": "inhibition of growth at 50 µg/mL", "measurement": "17.3%"}
{"molecule": "Cc1nnsc1C1=NNC2SC(c3ccccc3OC(F)(F)F)=NN12 (configuration not stated)", "quantityName": "inhibition of growth at 50 µg/mL", "measurement": "0%"}
{"molecule": "Cc1nnsc1C1=NNC2SC(c3cccc([N+](=O)[O-])c3)=NN12 (configuration not stated)", "quantityName": "inhibition of growth at 50 µg/mL", "measurement": "54.8%"}
{"molecule": "Cc1nnsc1C1=NNC2SC(COc3ccc(Cl)cc3Cl)=NN12 (configuration not stated)", "quantityName": "inhibition of growth at 50 µg/mL", "measurement": "12.1%"}
{"molecule": "COc1ccccc1C1=NN2C(c3snnc3C)=NNC2S1 (configuration not stated)", "quantityName": "inhibition of growth at 50 µg/mL", "measurement": "11.1%"}
{"molecule": "Cc1nnsc1C1=NNC2SC(c3cccc(F)c3)=NN12 (configuration not stated)", "quantityName": "inhibition of growth at 50 µg/mL", "measurement": "0%"}
{"molecule": "CCCC1=NN2C(c3snnc3C)=NNC2S1 (configuration not stated)", "quantityName": "inhibition of growth at 50 µg/mL", "measurement": "75.8%"}
{"molecule": "Cc1nnsc1C1=NNC2SC(/C=C/c3ccccc3)=NN12 (configuration not stated)", "quantityName": "inhibition of growth at 50 µg/mL", "measurement": "18.2%"}

----------
Tested on: Botrytis cinerea
Test: Fungicide activity against Botryotinia fuckeliana assessed as growth inhibition at 50 ug/mL at 24 to 26 degC measured after 2 days
Type: functional
Conditions: 48 h, read-out: GI
# reported inhibition of growth at 50 µg/mL; entries follow

{"molecule": "Cc1nnsc1C1=NNC2SC(c3c(-c4ccccc4)noc3C)=NN12 (stereo not given)", "inhibition of growth at 50 µg/mL / %": 46.2}
{"molecule": "Cc1nnsc1C1=NNC2SC(CCl)=NN12 (stereo not given)", "inhibition of growth at 50 µg/mL / %": 65.2}
{"molecule": "Cc1nnsc1C1=NNC2SC(c3ccc(F)cc3)=NN12 (stereo not given)", "inhibition of growth at 50 µg/mL / %": 53.3}
{"molecule": "CCCC1=NN2C(c3snnc3C)=NNC2S1 (stereo not given)", "inhibition of growth at 50 µg/mL / %": 84.9}
{"molecule": "Cc1nnsc1C1=NNC2SC(c3cccc(OC(F)(F)F)c3)=NN12 (stereo not given)", "inhibition of growth at 50 µg/mL / %": 68.9}
{"molecule": "Cc1nnsc1C1=NNC2SC(c3ccc([N+](=O)[O-])cc3)=NN12 (stereo not given)", "inhibition of growth at 50 µg/mL / %": 60}
{"molecule": "Cc1nnsc1C1=NNC2SC(/C=C/c3ccccc3)=NN12 (stereo not given)", "inhibition of growth at 50 µg/mL / %": 81.8}
{"molecule": "Cc1nnsc1C1=NNC2SC(c3c(Cl)cccc3Cl)=NN12 (stereo not given)", "inhibition of growth at 50 µg/mL / %": 64.4}
{"molecule": "COc1ccccc1C1=NN2C(c3snnc3C)=NNC2S1 (stereo not given)", "inhibition of growth at 50 µg/mL / %": 50}
{"molecule": "Cc1nnsc1C1=NNC2SC(c3cccc(F)c3)=NN12 (stereo not given)", "inhibition of growth at 50 µg/mL / %": 75}
